# tested-on: LNX1_2, Q8TBB1
# Sequence (Q8TBB1 371-470): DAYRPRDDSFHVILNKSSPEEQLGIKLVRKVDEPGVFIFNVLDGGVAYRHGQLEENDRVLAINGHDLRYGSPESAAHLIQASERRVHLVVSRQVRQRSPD
# protocol-details: holdup assay
# Design: key: below the threshold = too weak to quantify, mostly under pKd 3.1 to 4
# run-conditions: plain residues with an end cap or a label only (N-terminal biotin on a linker: ttds)

[
  {
    "binder": "FHPLGADSQV [SLC2A1, P11166]",
    "pKd": "below the threshold"
  },
  {
    "binder": "SKPTRRETEV [HPV35-E6, P27228]",
    "pKd": "below the threshold"
  },
  {
    "binder": "EMDRRPATVV [PLCB4, Q15147]",
    "pKd": 3.67
  },
  {
    "binder": "PVRVCEETSL [OTULIN, Q96BN8]",
    "pKd": "below the threshold"
  }
]
